test: Crossover pharmacokinetic study in rats after IV or oral MPI8 sulfonate; type: in vivo, Sprague-Dawley rats; details: male, Sprague-Dawley, in vivo, iv; rat; i.v. 5 mg/kg MPI8 sulfonate; NCA; read-out: AUC0−10 h
measurement-name: AUC(0-t) (ng·h/mL)
Give just the number in ng·h/mL; leave the unit off.

Query string: Fill in reported AUC(0-t) for this entry: CC(OC(C)(C)C)C(NC(=O)OCc1ccccc1)C(=O)NC(CC1CCCCC1)C(=O)NC(C=O)CC1CCNC1=O (stereo not shown) [MPI8]
Result string: 613

###

assay: Crossover pharmacokinetic study in rats after IV or oral MPI8 sulfonate; assay type: in vivo, Sprague-Dawley rats; conditions: male, Sprague-Dawley, in vivo; rat; oral 50 mg/kg MPI8 sulfonate; NCA; read-out: Vz/F
measurement-name: Vd/F (L/kg)
Your answer is read as L/kg, so omit the unit and give the number.

Query string: Give the value of Vd/F reported for the following: CC(OC(C)(C)C)C(NC(=O)OCc1ccccc1)C(=O)NC(CC1CCCCC1)C(=O)NC(C=O)CC1CCNC1=O (stereo not shown)
Result string: 81.6
